# System: Caco-2 cells
# Test Summary: Transepithelial electrical resistance (TEER) of Caco-2 cell monolayers
# Assay type: cell-based
# Design: unit not given here
# Applied Conditions: Table 9; 24 h after experiment, in culturing medium
Metric: TEER 24 h

>>> df
                               input_smiles     metric  recorded_value
0        CCCCCCCCCCCC(=O)N1CCC[C@@H]1C(=O)O  TEER 24 h            99.1
1   CCCCCCCCCCCCCC(=O)N[C@H](CC(=O)O)C(=O)O  TEER 24 h            96.1
2   CCCCCCCCCCCC(=O)N[C@H](Cc1ccccc1)C(=O)O  TEER 24 h           108.4
3  CCCCCCCCCCCCCC(=O)N[C@H](Cc1ccc(O)cc1)C(=O)O  TEER 24 h           125.3
4  CCCCCCCCCCCCCCCC(=O)N[C@H](CCC(=O)O)C(=O)O  TEER 24 h           106.2
5      CCCCCCCCCCCC(=O)N[C@H](CC(C)C)C(=O)O  TEER 24 h           100.0
6  CCCCCCCCCCCCCCCC(=O)N[C@H](CC(=O)O)C(=O)O  TEER 24 h           112.2
